molecular target: hErbB3.mmh (soluble monomeric human ErbB3 extracellular domain with C-terminal myc-myc-hexahistidine tag) (human, UniProt P21860 20-642); assay: SPR (Biacore), 25 C, mAb capture format
Sequence (P21860 other isoform, or with tags, fused parts or gaps): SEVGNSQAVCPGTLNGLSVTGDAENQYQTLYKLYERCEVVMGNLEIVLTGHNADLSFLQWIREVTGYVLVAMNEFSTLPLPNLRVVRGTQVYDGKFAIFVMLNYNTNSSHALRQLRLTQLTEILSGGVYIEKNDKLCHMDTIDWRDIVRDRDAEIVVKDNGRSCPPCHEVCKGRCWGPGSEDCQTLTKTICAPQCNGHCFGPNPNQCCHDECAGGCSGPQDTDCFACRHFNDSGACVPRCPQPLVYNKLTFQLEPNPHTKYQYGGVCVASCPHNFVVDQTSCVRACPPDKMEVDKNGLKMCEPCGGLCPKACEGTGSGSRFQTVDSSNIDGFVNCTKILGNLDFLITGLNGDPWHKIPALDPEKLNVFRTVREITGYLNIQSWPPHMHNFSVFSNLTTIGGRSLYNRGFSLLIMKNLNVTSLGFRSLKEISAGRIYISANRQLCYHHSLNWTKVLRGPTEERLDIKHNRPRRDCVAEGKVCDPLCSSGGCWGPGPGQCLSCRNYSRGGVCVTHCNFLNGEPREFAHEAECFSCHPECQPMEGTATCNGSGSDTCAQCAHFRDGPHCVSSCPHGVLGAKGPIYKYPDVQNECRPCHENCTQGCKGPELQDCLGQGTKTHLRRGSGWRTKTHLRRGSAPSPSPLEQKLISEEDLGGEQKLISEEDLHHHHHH
Criterion: Kd strictly less than 0.4 nM. Met: Y. Not met: N.

>>> assigned_class("H4H2154P (antibody, V domains shown, Fully human, human IgG4 Fc (H4H prefix)) VH: QVQLQESGPGLINPSQTLSVTCTVSGGSISSGGYYWTWIRQHPGKGLEWIGYISYSGNTNYNPSLKSRVTISVDTAKNQFSLKLSSVTAADTAVYFCARDSDVDTAMVDGIDIWGQGTMVTVSS VL: DIQMTQSPSSVSASVGDRVTITCRASQDISSWLAWYQQKPGRAPKLLIYTASSLQSGVPSRFSGSGSGTDFTLTISSLQPEDFATYFCQQANSFPFTFGPGTKVDIKR")
"Y"
>>> assigned_class("H4H2111P (antibody, V domains shown, Fully human, human IgG4 Fc (H4H prefix)) VH: QVQLVESGGGVVQPGRSLRLSCAASGFTFNNYGMHWVRQAPGKGLAWVAVMWYSESHKYYADSVKGRFTISRDNSKNTLYLEMNSLRVEDTAIYYCARDLGDPDAFDIWGQGTMVTVSS VL: DIQLTQSPSFLSASVGDRVTITCWASQGISSYLAWYQQKPGKAPKLLIYGASTLQSGVPSRFSGSGSGTEFTLTISSLQPEDFATYYCQQLNSYPLTFGGGTKVEIKR")
"Y"
>>> assigned_class("H2M1934N (antibody, V domains shown, Hybridoma chimeric antibody: human variable domains, mouse IgG2 Fc (H2M prefix)) VH: EVQLVQSGGGLVKPGGSLRLSCAASGFTFSNFNMNWVRQAPGKGLEWVSFISSLSTYTYYADSVKGRFTISRDNAKNSLYLQMNSLRAEDTAVYYCARDDGDHDWFDPWGQGTLVTVSS VL: EIVLTQSPDTLSLSPGERATLSCRASQSVSSNYLAWYQQKPGQAPRLLIYSASNRATGIPDRFSGSGSGTDFTLTISRLEPEDFAVYYCQQYDSSYTFGQGTKLEIK")
"N"
>>> assigned_class("H2M1938N (antibody, V domains shown, Hybridoma chimeric antibody: human variable domains, mouse IgG2 Fc (H2M prefix)) VH: EVQLVESGGGVVRPGGSLRLSCAASGFTFDDYGMSWVRQVPGKGLEWVSGLNWNGGITGYTDSVKGRFTISRDNAKNSLYLQMNSLRAEDTAFYHCARDSGDQDAFDIWGQGTMVTVSS VL: QIVMTQSPATLSVSPGERATLSCRASQSITPYLAWYQQKPGQTPRLLIYGVSTRATGIPARFSGSGSGTEFTLTISSLQSEDFAVYYCQQYDNWYTFGQGTKLEIK")
"N"
>>> assigned_class("H4H2140P (antibody, V domains shown, Fully human, human IgG4 Fc (H4H prefix)) VH: EVQLVESGGGLVQPGGSLRLSCAASGFSVSYYDMHWVRQVTGKGLEWVSAIGPAGDTYYPGSVKGRFTISREDATNSLYLQIHSLGAGDTAVYYCAREGAIAARPDDYYGMDVWGQGTTVTVSS VL: DIQLTQSPSFLSASVGDRVTITCWASQDISSYLAWYQQKPGKAPKLLIYAASTLQSGVPSRFSGSGSGTEFTLTISSLQPEDFATYYCQQLNSYPLTFGGGTKVEIKR")
"Y"
>>> assigned_class("H2M1930N (antibody, V domains shown, Hybridoma chimeric antibody: human variable domains, mouse IgG2 Fc (H2M prefix)) VH: EVQLVESGGGLVKPGGSLRLSCVASGFTFSSYNMNWVRQAPGKGLEWVSFISGSSNYIHYADSVKGRFTISRDNAKNALYLQMNSLRAEDTAVYYCARDDGDYDWFDPWGQGTLVTVSS VL: EIVLTQSPGTLSLSPGERATLSCRASQSVSSSYLAWYQQKPGQAPRLLIYGTSSRATGIPDRFSGSGSGTDFTLTISRLEPEDFAVYYCQQYDNSYTFGQGTKLEIK")
"N"
>>> assigned_class("H2M1824N (antibody, V domains shown, Hybridoma chimeric antibody: human variable domains, mouse IgG2 Fc (H2M prefix)) VH: EVQLVESGGGVVRPGGSLRLSCAASGFTFDDYGMSWVRQAPGKGLECVSGINWNGGSTDYADSVKGRFTISRDNAKNSLYLQMNSLRAEDTASYYCARDGGDWDYFDLWGRGTLVTVSS VL: EIVMTQSPATLSVSPGERATLSCRASQSVSSNLAWYQQKPGQAPRLLIYGASTRATGIPARFSGSGSGTEFTLTISSLQSEDFAVYFCQEYNDWPLTFGGGTKVEIK")
"Y"
